Every entry's value here was drawn from paper PMC7749107.

Test target: DretNmU-Ra (Deroceras reticulatum)
Sequence (A0A888YNE3 1-505): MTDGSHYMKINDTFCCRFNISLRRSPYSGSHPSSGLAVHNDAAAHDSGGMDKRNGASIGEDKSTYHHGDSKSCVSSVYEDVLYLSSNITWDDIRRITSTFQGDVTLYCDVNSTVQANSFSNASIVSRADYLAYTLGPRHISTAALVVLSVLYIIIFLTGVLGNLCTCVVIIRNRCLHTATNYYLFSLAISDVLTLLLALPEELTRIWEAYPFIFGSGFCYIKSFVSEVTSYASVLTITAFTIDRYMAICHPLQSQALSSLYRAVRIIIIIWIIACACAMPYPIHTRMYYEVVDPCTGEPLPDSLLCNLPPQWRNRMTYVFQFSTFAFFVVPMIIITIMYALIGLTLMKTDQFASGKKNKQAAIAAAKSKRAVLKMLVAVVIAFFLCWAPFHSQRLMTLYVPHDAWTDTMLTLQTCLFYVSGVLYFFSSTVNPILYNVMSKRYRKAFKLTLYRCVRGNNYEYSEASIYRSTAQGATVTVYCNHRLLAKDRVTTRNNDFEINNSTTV
Assay details: Calcium mobilisation (FLIPR Calcium 6 fluorescence) receptor activation assay, Sf9 cells stably expressing DretNmU-Ra
Assay type: cell-based
Condition description: 500 nM peptide; Sf9 cells stably expressing DretNmU-Ra; three to four replicates; result in words
Where a SMILES comes first, the peptide text is derived from it.
Endpoint label: Binding activity (receptor response, ∆fluorescence) at single concentration

- CC(C)C[C@H](NC(=O)[C@@H]1CCCN1C(=O)[C@@H]1CCCN1C(=O)[C@@H](N)CCC(N)=O)C(=O)N1CCC[C@H]1C(=O)N[C@@H](CCCNC(=N)N)C(=O)N[C@@H](Cc1ccc(O)cc1)C(N)=O [QPPLPRYa] (H-QPPLPRY-NH2; N-terminus assumed): evoked distinct binding
- CC[C@H](C)[C@H](NC(=O)[C@H](CCCNC(=N)N)NC(=O)[C@@H]1CCCN1C(=O)[C@H](CCCNC(=N)N)NC(=O)[C@@H]1CCCN1C(=O)[C@@H](NC(=O)[C@H](C)N)C(C)C)C(N)=O [AVPRPRIa] (H-AVPRPRI-NH2; N-terminus assumed): evoked distinct binding
- CC(C)[C@H](NC(=O)[C@@H]1CCCN1C(=O)[C@@H]1CCCN1C(=O)[C@@H](N)CCC(N)=O)C(=O)N1CCC[C@H]1C(=O)N[C@@H](CCCNC(=N)N)C(=O)N[C@@H](Cc1ccc(O)cc1)C(N)=O [QPPVPRYa] (H-QPPVPRY-NH2): evoked distinct binding
